- Tested on: sandwich-cultured rat hepatocytes
- test: Intrinsic biliary clearance in sandwich-cultured rat hepatocytes
- experimental-setup: rat, serum
compounds and their reported Intrinsic Biliary Clearance, Serum
Hey, just send me the number, nothing else.

These recorded examples may help you get a feel for the data.
>>> value("CN(Cc1cnc2nc(N)nc(N)c2n1)c1ccc(C(=O)N[C@@H](CCC(=O)O)C(=O)O)cc1 [Methotrexate]")
0.91
>>> value("C[C@H]1O[C@@H](O[C@H]2[C@@H](O)C[C@H](O[C@H]3[C@@H](O)C[C@H](O[C@H]4CC[C@@]5(C)[C@H](CC[C@@H]6[C@@H]5C[C@@H](O)[C@]5(C)[C@@H](C7=CC(=O)OC7)CC[C@]65O)C4)O[C@@H]3C)O[C@@H]2C)C[C@H](O)[C@@H]1O")
5.12
>>> value("CC[C@H](C)C(=O)O[C@H]1C[C@H](O)C=C2C=C[C@H](C)[C@H](CC[C@@H](O)C[C@@H](O)CC(=O)O)[C@H]21")
2.06

Recorded Intrinsic Biliary Clearance, Serum of O=C(O)C[C@H](O)C[C@H](O)/C=C/c1c(C2CC2)nc2ccccc2c1-c1ccc(F)cc1 , please.
277.50

Requested read-out: Intrinsic Biliary Clearance, Serum. Entry: CCCCC(=O)N(Cc1ccc(-c2ccccc2-c2nnn[nH]2)cc1)[C@H](C(=O)O)C(C)C
1.39
